- experimental-target: Peroxisome proliferator-activated receptor alpha (Homo sapiens)
- Sequence (Q07869 whole entry, the tested form may be a part): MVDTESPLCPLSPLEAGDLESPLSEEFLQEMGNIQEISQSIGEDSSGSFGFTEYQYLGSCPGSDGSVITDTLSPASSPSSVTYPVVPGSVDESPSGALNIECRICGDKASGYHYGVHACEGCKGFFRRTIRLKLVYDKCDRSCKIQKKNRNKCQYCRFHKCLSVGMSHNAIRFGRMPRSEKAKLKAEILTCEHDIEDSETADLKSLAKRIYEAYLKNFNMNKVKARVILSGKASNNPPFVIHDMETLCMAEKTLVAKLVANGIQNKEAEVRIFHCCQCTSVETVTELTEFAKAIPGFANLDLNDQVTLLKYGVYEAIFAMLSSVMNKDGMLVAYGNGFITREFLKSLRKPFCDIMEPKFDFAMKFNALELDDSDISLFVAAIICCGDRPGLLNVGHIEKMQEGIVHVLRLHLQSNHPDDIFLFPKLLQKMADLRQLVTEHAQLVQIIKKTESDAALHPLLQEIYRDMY
- assay-details: Agonist activity at wild-type human PPARalpha LBD expressed in COS7 cells after 12 hrs by Dual-Glo luciferase assay
- Type: cell-based, COS-7
recorded-metric: log10 EC50 (log10 of the value in nM)
Answers are given as log10 of EC50 in nM.

Prompt: State the recorded log10 EC50 for this entry: O=C(O)CSc1nc(Cl)cc(Nc2ccc(Nc3ccccc3)cc2)n1
Response: 4.08

Prompt: Can you check CCCCCCC(Sc1nc(Cl)cc(Nc2cccc(C)c2C)n1)C(=O)O (configuration not stated) next?
Response: 3.00

Prompt: Can you check CCCCCCC(Sc1nc(Cl)cc(Nc2ccc(C(=O)c3ccccc3)cc2)n1)C(=O)O (configuration not stated) next?
Response: 2.45

Prompt: Can you check CCCCC(Sc1nc(Cl)cc(Nc2ccc(Nc3ccccc3)cc2)n1)C(=O)O (configuration not stated) next?
Response: 2.54

Prompt: Can you check CCCCCCC(Sc1nc(Cl)cc(Nc2ccc(Cc3ccccc3)cc2)n1)C(=O)O (configuration not stated) next?
Response: 2.86

Prompt: Can you check CCCCCCC(Sc1nc(Cl)cc(Nc2ccc(Nc3ccccc3)cc2)n1)C(=O)O (configuration not stated) next?
Response: 1.85

Prompt: Can you check CCCCCCC(Sc1nc(Cl)cc(Nc2ccc(Oc3ccccc3)cc2)n1)C(=O)O (configuration not stated) next?
Response: 2.45

###

Exercise: for every item that follows, state its recorded %max.
- experimental-target: Peroxisome proliferator-activated receptor gamma (Homo sapiens) (UniProt P37231)
- assay-details: Agonist activity at human PPARgamma LBD expressed in COS7 cells after 12 hrs by Dual-Glo luciferase assay relative to pioglitazone
- Assay type: cell-based
- measurement-context: COS-7

Prompt: State the recorded %max for this entry: CCCCCCC(Sc1nc(Cl)cc(Nc2cccc(C)c2C)n1)C(=O)O (centres undefined)
Response: 139%

Prompt: Can you check CCCCC(Sc1nc(Cl)cc(Nc2ccc(Nc3ccccc3)cc2)n1)C(=O)O (centres undefined) next?
Response: 135%

Prompt: Can you check CCCCCCC(Sc1nc(Cl)cc(Nc2ccc(Cc3ccccc3)cc2)n1)C(=O)O (centres undefined) next?
Response: 158%

Prompt: Can you check CCCCCCC(Sc1nc(Cl)cc(Nc2ccc(Oc3ccccc3)cc2)n1)C(=O)O (centres undefined) next?
Response: 146%

Prompt: Can you check CCCCCCC(Sc1nc(Cl)cc(Nc2ccc(C(=O)c3ccccc3)cc2)n1)C(=O)O (centres undefined) next?
Response: 117%

Prompt: Can you check CCCCCCC(Sc1nc(Cl)cc(Nc2ccc(Nc3ccccc3)cc2)n1)C(=O)O (centres undefined) next?
Response: 126%

Prompt: Can you check CCCCC(Sc1nc(Cl)cc(Nc2cccc(C)c2C)n1)C(=O)O (centres undefined) next?
Response: 120%

Prompt: Can you check O=C(O)CSc1nc(Cl)cc(Nc2ccc(Nc3ccccc3)cc2)n1 next?
Response: 143%

Prompt: Can you check Cc1cccc(Nc2cc(Cl)nc(SCC(=O)O)n2)c1C next?
Response: 79%

###

- experimental-target: Peroxisome proliferator-activated receptor gamma (Homo sapiens)
- Sequence (P37231 whole entry, the tested form may be a part): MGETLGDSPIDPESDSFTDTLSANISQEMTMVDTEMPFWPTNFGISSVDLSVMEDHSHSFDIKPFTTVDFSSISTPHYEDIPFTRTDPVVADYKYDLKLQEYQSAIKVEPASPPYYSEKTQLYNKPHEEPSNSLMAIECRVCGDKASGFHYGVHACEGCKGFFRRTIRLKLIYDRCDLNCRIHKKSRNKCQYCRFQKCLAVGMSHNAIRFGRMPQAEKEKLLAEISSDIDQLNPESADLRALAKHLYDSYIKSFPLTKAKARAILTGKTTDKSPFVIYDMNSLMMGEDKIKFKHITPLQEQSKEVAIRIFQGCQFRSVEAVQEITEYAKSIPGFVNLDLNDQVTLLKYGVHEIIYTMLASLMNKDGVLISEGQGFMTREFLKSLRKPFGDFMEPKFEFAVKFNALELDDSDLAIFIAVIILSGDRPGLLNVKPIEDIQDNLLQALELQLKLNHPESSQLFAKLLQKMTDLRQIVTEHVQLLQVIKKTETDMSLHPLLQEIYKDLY
- assay-details: Agonist activity at human PPARgamma LBD expressed in COS7 cells after 12 hrs by Dual-Glo luciferase assay
recorded-metric: pEC50
Note on pEC50: it is the negative log10 of concentration, concentration in mol/L.

Prompt: State the recorded pEC50 for this entry: O=C(O)CSc1nc(Cl)cc(Nc2ccc(Nc3ccccc3)cc2)n1
Response: 4.91

Prompt: Can you check CCCCCCC(Sc1nc(Cl)cc(Nc2ccc(Oc3ccccc3)cc2)n1)C(=O)O (stereo unspecified) next?
Response: 5.63

Prompt: Can you check CCCCC(Sc1nc(Cl)cc(Nc2ccc(Nc3ccccc3)cc2)n1)C(=O)O (stereo unspecified) next?
Response: 5.97

Prompt: Can you check CCCCCCC(Sc1nc(Cl)cc(Nc2ccc(Cc3ccccc3)cc2)n1)C(=O)O (stereo unspecified) next?
Response: 6.31

Prompt: Can you check CCCCCCC(Sc1nc(Cl)cc(Nc2ccc(C(=O)c3ccccc3)cc2)n1)C(=O)O (stereo unspecified) next?
Response: 5.92

Prompt: Can you check CCCCCCC(Sc1nc(Cl)cc(Nc2ccc(Nc3ccccc3)cc2)n1)C(=O)O (stereo unspecified) next?
Response: 6.16
